Molecular target: HDAC8 (Homo sapiens)
Sequence (Q9BY41 whole entry, species assumed): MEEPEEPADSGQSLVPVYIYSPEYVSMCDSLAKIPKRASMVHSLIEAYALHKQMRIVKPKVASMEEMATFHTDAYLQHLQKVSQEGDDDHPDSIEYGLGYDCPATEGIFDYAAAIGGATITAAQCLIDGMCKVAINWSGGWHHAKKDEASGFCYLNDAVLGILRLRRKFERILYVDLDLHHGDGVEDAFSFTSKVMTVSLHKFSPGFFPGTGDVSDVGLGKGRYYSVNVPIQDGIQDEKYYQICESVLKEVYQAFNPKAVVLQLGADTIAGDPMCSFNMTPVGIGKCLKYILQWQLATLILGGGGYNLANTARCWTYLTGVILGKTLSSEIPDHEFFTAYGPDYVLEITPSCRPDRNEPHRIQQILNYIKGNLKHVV
Assay: In vitro enzymatic assay with purified HDACs
Type: biochemical
measurement type: IC50 (µM)
Reply numerically in µM, unit not repeated.

Incoming: For the compound shown here, CN(C(=O)CCCNc1cccc2c1C(=O)N(C1CCC(=O)NC1=O)C2=O)c1ccc(NC(=O)CCCCCCC(=O)NO)cc1 (stereo not shown) , give the reported IC50.
Outgoing: 0.621

----------
Target: HDAC5 (Homo sapiens)
Sequence (Q9UQL6 whole entry, species assumed): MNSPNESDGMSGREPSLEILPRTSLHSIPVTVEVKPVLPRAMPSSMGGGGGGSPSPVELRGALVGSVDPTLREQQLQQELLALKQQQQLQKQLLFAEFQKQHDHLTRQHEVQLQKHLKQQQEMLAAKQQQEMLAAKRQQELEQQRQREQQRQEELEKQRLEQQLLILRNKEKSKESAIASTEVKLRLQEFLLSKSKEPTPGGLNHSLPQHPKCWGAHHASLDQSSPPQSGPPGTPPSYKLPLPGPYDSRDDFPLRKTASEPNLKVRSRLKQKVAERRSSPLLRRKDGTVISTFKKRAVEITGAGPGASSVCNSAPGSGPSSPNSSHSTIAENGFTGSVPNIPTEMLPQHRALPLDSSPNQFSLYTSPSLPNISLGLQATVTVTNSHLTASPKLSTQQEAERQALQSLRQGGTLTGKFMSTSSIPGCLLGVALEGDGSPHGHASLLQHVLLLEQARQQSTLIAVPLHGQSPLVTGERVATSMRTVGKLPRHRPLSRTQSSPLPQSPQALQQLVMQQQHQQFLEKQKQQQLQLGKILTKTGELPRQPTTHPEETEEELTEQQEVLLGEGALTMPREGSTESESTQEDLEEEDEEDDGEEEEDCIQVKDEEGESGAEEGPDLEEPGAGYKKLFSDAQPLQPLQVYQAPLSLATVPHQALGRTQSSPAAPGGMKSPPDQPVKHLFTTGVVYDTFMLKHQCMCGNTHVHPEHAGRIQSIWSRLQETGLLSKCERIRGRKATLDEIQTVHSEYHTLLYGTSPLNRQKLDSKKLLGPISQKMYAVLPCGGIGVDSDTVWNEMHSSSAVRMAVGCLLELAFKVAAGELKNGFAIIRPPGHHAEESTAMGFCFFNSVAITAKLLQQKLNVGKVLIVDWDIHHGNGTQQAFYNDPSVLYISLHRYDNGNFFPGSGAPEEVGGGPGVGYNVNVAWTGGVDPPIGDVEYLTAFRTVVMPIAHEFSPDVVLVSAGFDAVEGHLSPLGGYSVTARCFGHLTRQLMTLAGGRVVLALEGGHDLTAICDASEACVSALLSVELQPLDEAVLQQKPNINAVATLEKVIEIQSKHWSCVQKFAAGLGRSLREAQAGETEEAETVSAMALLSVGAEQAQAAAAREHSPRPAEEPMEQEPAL
measurement type: pIC50
The quantity pIC50 is defined as the negative base-10 logarithm of the molar concentration.

Incoming: # lookup: pIC50 of CN(C(=O)CCCNc1cccc2c1C(=O)N(C1CCC(=O)NC1=O)C2=O)c1ccc(NC(=O)CCCCCCC(=O)NO)cc1 (stereo not shown)
Outgoing: 5.24
